Study system: IDH1 R132C (Homo sapiens, UniProt O75874, R132C)
Sequence (O75874 whole entry R132C): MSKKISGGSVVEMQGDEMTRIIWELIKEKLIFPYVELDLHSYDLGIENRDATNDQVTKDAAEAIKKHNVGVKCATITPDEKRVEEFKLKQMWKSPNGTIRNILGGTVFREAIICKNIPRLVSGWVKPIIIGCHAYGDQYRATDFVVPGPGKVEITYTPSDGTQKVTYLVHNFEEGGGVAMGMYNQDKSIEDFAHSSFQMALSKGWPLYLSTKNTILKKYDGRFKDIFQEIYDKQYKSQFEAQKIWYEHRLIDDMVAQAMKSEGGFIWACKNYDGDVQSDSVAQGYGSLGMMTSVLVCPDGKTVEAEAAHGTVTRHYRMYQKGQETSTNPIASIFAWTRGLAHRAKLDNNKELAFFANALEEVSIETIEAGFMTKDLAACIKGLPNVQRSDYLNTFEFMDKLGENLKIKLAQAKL
Assay details: IDH1 R132C enzymatic assay (NADPH depletion coupled to diaphorase/resazurin)
Format: biochemical
Condition summary: enzymatic inhibition, IDH1 R132C
pIC50: −log10 of the molar value.
Measured attribute: pIC50

O=C1CCCc2c1cc(-c1nc(-c3ccc(Cl)cc3)cs1)c(=O)n2-c1cccc(CO)c1 [Compound 565]; 4.70 to 5.30
Cc1ccc(Cl)c(-n2c3c(cc(-c4nc(-c5ccc(Cl)cc5)cs4)c2=O)C(=O)CC(C)(C)C3)c1 [Compound 613]; 6.00 to 6.52
CCc1cccc(CC)c1-n1c(CC2CCNCC2)c(C(=O)N2CCNCC2)cc(-c2nc(-c3ccc(Cl)cc3)cs2)c1=O [Compound 615]; < 4.70
CC(C)=Cc1c(C(=O)N2CCNCC2)cc(-c2nc(-c3ccc(Cl)cc3)cs2)c(=O)n1-c1ccc[nH]c1=O [Compound 616]; 4.70 to 5.30

Given item CCOc1ncc(F)cc1-n1c(C=C(C)C)c(C(=O)N2CCNCC2)cc(-c2nc(-c3ccc(C(F)(F)F)nc3)cs2)c1=O [Compound 534] , the value recorded as its pIC50 is > 6.52

So for CCc1ccc(F)cc1-n1c(C=C(C)C)c(C(=O)N2CCNCC2)cc(-c2nc(-c3ccc(C(F)(F)F)nc3)cs2)c1=O [Compound 424] , the logged pIC50 turned out to be 6.00 to 6.52

Per the records, this compound ( CC(C)=Cc1c(C(=O)N2CCNCC2)cc(-c2nc(-c3ccc(Cl)cc3)cs2)c(=O)n1-c1cc(C)ccc1OC(C)C [Compound 496] ) has pIC50 equal to > 6.52

# pIC50 (compound: CC1(C)CC(=O)c2cc(-c3nc(-c4ccc(Cl)cc4)cs3)c(=O)n(-c3ccc(Cl)cc3Cl)c2C1 [Compound 441] ) is 4.70 to 5.30

// pIC50 lookup, compound = CCOc1ccc(C)cc1-n1c(C=C(C)C)c(C(=O)N2CCNCC2)cc(-c2nc(-c3ccc(Cl)cc3)cs2)c1=O [Compound 528] , result: > 6.52

Quick note, pIC50 for CCc1cccc(CC)c1-n1c(CC(C)C)c(C(=O)N2CCNCC2)cc(-c2nc(/C=C/c3ccc(Cl)cc3)c(C)s2)c1=O [Compound 555] landed at 6.00 to 6.52

pIC50 in this record for CCc1cccc(CC)c1-n1c(C=C(C)C)c(C(=O)N2CCNCC2)cc(-c2ccn(-c3ccc(C4CC4)cc3)n2)c1=O [Compound 606] : > 6.52

Entry CCOc1ccc(Cl)cc1-n1c(C=C(C)C)c(C(=O)N2CCNCC2)cc(-c2nc(-c3ccc(Cl)cc3)cs2)c1=O [Compound 463] — recorded pIC50 = > 6.52

The reported value for COCc1ncc(Cl)cc1-n1c(C=C(C)C)c(C(=O)N2CCNCC2)cc(-c2nc(-c3ccc(C(F)(F)F)cc3)cs2)c1=O [Compound 586] in terms of pIC50 is > 6.52

The compound listed as CCOc1cccc(CC)c1-n1c(C=C(C)C)c(C(=O)N2CCNCC2)cc(-c2nc(-c3ccc(Cl)cc3)cs2)c1=O [Compound 578] shows pIC50 equal to > 6.52

The reported value for CCc1cccc(Cl)c1-n1c(C=C(C)C)c(C(=O)N2CCNCC2)cc(-c2nc(-c3ccc(Cl)cc3)cs2)c1=O [Compound 448] in terms of pIC50 is > 6.52
